system: CH1/PA‐1; test: Cell cycle distribution, flow cytometry with propidium iodide; type: cell-based, human; details: CH1/PA-1, 5 µM, 24 h, mean ± SD
assayMetric: Cell cycle distribution G2/M, % (%)

structurestring=CC1=C2[O][Rh+]([Cl])[S]=C2C=CN1c1cccc2ccccc12.Cc1c(C)c(C)[c-](C)c1C scaleunit=% readoutnumber=22
structurestring=Cc1c(O)c(=S)ccn1C scaleunit=% readoutnumber=27
structurestring=Cc1c([O-])c(=S)ccn1Cc1ccccc1.Cc1ccc(C(C)C)cc1.[Cl-].[Ru+2] scaleunit=% readoutnumber=30
structurestring=Cc1c(O)c(=S)ccn1Cc1ccccc1 scaleunit=% readoutnumber=32

* * *

tested on: SW480; experiment: Cell cycle distribution, flow cytometry with propidium iodide; type: cell-based, human; details: SW480, 10 µM, difference to untreated control
assayMetric: Relative change in cell cycle distribution S, % (%)

structurestring=Cc1c(O)c(=S)ccn1Cc1ccccc1 scaleunit=% readoutnumber=12
structurestring=CC1=C2[O][Rh+]([Cl])[S]=C2C=CN1c1cccc2ccccc12.Cc1c(C)c(C)[c-](C)c1C scaleunit=% readoutnumber=1
structurestring=Cc1c(O)c(=S)ccn1C scaleunit=% readoutnumber=2
structurestring=Cc1c([O-])c(=S)ccn1Cc1ccccc1.Cc1ccc(C(C)C)cc1.[Cl-].[Ru+2] scaleunit=% readoutnumber=-1
structurestring=CC1=C2[O][Rh+]([Cl])[S]=C2C=CN1C.Cc1c(C)c(C)[c-](C)c1C scaleunit=% readoutnumber=9
structurestring=CC1=C2[O][Ir+]([Cl])[S]=C2C=CN1C.Cc1c(C)c(C)[c-](C)c1C scaleunit=% readoutnumber=9

* * *

tested on: SW480; assay: Cell cycle distribution, flow cytometry with propidium iodide; format: cell-based, human; conditions: SW480, 10 µM, 24 h, mean ± SD
assayMetric: Cell cycle distribution G2/M, % (%)

structurestring=CC1=C2[O][Ir+]([Cl])[S]=C2C=CN1C.Cc1c(C)c(C)[c-](C)c1C assaymetric="Cell cycle distribution G2/M, %" readoutnumber=17
structurestring=Cc1c([O-])c(=S)ccn1Cc1ccccc1.Cc1ccc(C(C)C)cc1.[Cl-].[Ru+2] assaymetric="Cell cycle distribution G2/M, %" readoutnumber=21
structurestring=CC1=C2[O][Rh+]([Cl])[S]=C2C=CN1c1cccc2ccccc12.Cc1c(C)c(C)[c-](C)c1C assaymetric="Cell cycle distribution G2/M, %" readoutnumber=18
structurestring=Cc1c(O)c(=S)ccn1Cc1ccccc1 assaymetric="Cell cycle distribution G2/M, %" readoutnumber=27
structurestring=Cc1c(O)c(=S)ccn1C assaymetric="Cell cycle distribution G2/M, %" readoutnumber=24
structurestring=CC1=C2[O][Rh+]([Cl])[S]=C2C=CN1C.Cc1c(C)c(C)[c-](C)c1C assaymetric="Cell cycle distribution G2/M, %" readoutnumber=20

* * *

Cell cycle distribution S, % values by entry
test system: CH1/PA‐1; assay: Cell cycle distribution, flow cytometry with propidium iodide; type: cell-based, human; conditions: CH1/PA-1, 2.5 µM, 24 h, mean ± SD
assayMetric: Cell cycle distribution S, %

compound="Cc1c(O)c(=S)ccn1Cc1ccccc1 [Compound 2 c]" result="37 ± 5%"
compound="Cc1c([O-])c(=S)ccn1Cc1ccccc1.Cc1ccc(C(C)C)cc1.[Cl-].[Ru+2] [Compound 3 c]" result="47 ± 8%"
compound="CC1=C2[O][Ir+]([Cl])[S]=C2C=CN1Cc1ccccc1.Cc1c(C)c(C)[c-](C)c1C [Compound 6 c]" result="39 ± 4%"
compound="CC1=C2[O][Rh+]([Cl])[S]=C2C=CN1c1cccc2ccccc12.Cc1c(C)c(C)[c-](C)c1C [Compound 5 d]" result="36 ± 7%"

* * *

tested on: CH1/PA‐1; test: Cell cycle distribution, flow cytometry with propidium iodide; format: cell-based, human; settings: CH1/PA-1, 2.5 µM, difference to untreated control
Relative change in cell cycle distribution S, % values by entry
assayMetric: Relative change in cell cycle distribution S, % (%)

molecule="CC1=C2[O][Ir+]([Cl])[S]=C2C=CN1Cc1ccccc1.Cc1c(C)c(C)[c-](C)c1C [Compound 6 c]" scaleunit=% readoutnumber=3
molecule="CC1=C2[O][Rh+]([Cl])[S]=C2C=CN1c1cccc2ccccc12.Cc1c(C)c(C)[c-](C)c1C [Compound 5 d]" scaleunit=% readoutnumber=0
molecule="Cc1c([O-])c(=S)ccn1Cc1ccccc1.Cc1ccc(C(C)C)cc1.[Cl-].[Ru+2] [Compound 3 c]" scaleunit=% readoutnumber=11
molecule="Cc1c(O)c(=S)ccn1Cc1ccccc1 [Compound 2 c]" scaleunit=% readoutnumber=1

* * *

Cell cycle distribution G1, % values by entry
system: SW480; assay: Cell cycle distribution, flow cytometry with propidium iodide; format: cell-based, human; conditions: SW480, 5 µM, 24 h, mean ± SD
assayMetric: Cell cycle distribution G1, % (%)

compound="Cc1c(O)c(=S)ccn1C [Compound 2 a]" readoutnumber=45
compound="CC1=C2[O][Ir+]([Cl])[S]=C2C=CN1C.Cc1c(C)c(C)[c-](C)c1C [Compound 6 a]" readoutnumber=41
compound="Cc1c(O)c(=S)ccn1Cc1ccccc1 [Compound 2 c]" readoutnumber=30
compound="CC1=C2[O][Rh+]([Cl])[S]=C2C=CN1c1cccc2ccccc12.Cc1c(C)c(C)[c-](C)c1C [Compound 5 d]" readoutnumber=43
compound="CC1=C2[O][Rh+]([Cl])[S]=C2C=CN1C.Cc1c(C)c(C)[c-](C)c1C [Compound 5 a]" readoutnumber=44
compound="Cc1c([O-])c(=S)ccn1Cc1ccccc1.Cc1ccc(C(C)C)cc1.[Cl-].[Ru+2] [Compound 3 c]" readoutnumber=44

* * *

IC50 values by entry
Test system: SW480
Assay: MTT cytotoxicity assay, monolayer culture
Format: cell-based, human
Details: Homo sapiens; SW480, MTT assay, exposure time 96 h, means ± SDs
Source text: A549 (non‐small cell lung carcinoma), SW480 and HCT‐116 (both colon carcinoma) were kindly provided by Brigitte Marian, Institute of Cancer Research, Department of Medicine I, Medical University of Vienna, Austria. The cell line CH1/PA‐1 (ovarian teratocarcinoma) was kindly provided by Lloyd R. Kelland (CRC Centre for Cancer Therapeutics, Institute of Cancer Research, Sutton, UK). […]
assayMetric: IC50 (nM)

structurestring=Cc1c(O)c(=S)ccn1-c1cccc2ccccc12 readoutnumber=350
structurestring=Cc1c(O)c(=S)ccn1-c1ccccc1 readoutnumber=520
structurestring=Cc1c(O)c(=S)ccn1C readoutnumber=3200
structurestring=Cc1c(O)c(=S)ccn1Cc1ccccc1 readoutnumber=280

* * *

settings: pH 7.2
assayMetric: φ0 (chromatographic lipophilicity index)

compound="CC1=C2[O][Ir+]([Cl])[S]=C2C=CN1C.Cc1c(C)c(C)[c-](C)c1C [Compound 6 a]" readoutnumber=5.75
compound="Cc1c([O-])c(=S)ccn1C.Cc1ccc(C(C)C)cc1.[Cl-].[Ru+2] [Compound 3 a]" readoutnumber=5.51
compound="Cc1c([O-])c(=S)ccn1Cc1ccccc1.Cc1ccc(C(C)C)cc1.[Cl-].[Ru+2] [Compound 3 c]" readoutnumber=6.04
compound="CC1=C2[O][Ir+]([Cl])[S]=C2C=CN1Cc1ccccc1.Cc1c(C)c(C)[c-](C)c1C [Compound 6 c]" readoutnumber=6.22
compound="CC1=C2[O][Rh+]([Cl])[S]=C2C=CN1C.Cc1c(C)c(C)[c-](C)c1C [Compound 5 a]" readoutnumber=5.91

* * *

tested on: A549; assay: MTT cytotoxicity assay, monolayer culture; format: cell-based, human; conditions: Homo sapiens, exposure time 96 h, means ± SDs
assayMetric: IC50 (µM)

structurestring=Cc1c(O)c(=S)ccn1Cc1ccccc1 readoutnumber=0.79
structurestring=Cc1c(O)c(=S)ccn1C readoutnumber=66
structurestring=Cc1c(O)c(=S)ccn1-c1cccc2ccccc12 readoutnumber=1.6
structurestring=Cc1c(O)c(=S)ccn1-c1ccccc1 readoutnumber=1.6

* * *

test system: CH1/PA‐1; experiment: Cell cycle distribution, flow cytometry with propidium iodide; assay type: cell-based, human; conditions: CH1/PA-1, 5 µM, difference to untreated control
Relative change in cell cycle distribution G2/M, % values by entry
assayMetric: Relative change in cell cycle distribution G2/M, % (%)

structurestring=CC1=C2[O][Rh+]([Cl])[S]=C2C=CN1c1cccc2ccccc12.Cc1c(C)c(C)[c-](C)c1C readoutnumber=-2
structurestring=Cc1c(O)c(=S)ccn1C readoutnumber=3
structurestring=Cc1c(O)c(=S)ccn1Cc1ccccc1 readoutnumber=8
structurestring=Cc1c([O-])c(=S)ccn1Cc1ccccc1.Cc1ccc(C(C)C)cc1.[Cl-].[Ru+2] readoutnumber=6

* * *

test system: SW480 cells; conditions: ICP‐MS, 2 h exposure, 50 μM
assayMetric: Cellular accumulation

compound="Cc1c([O-])c(=S)ccn1C.Cc1ccc(C(C)C)cc1.[Cl-].[Ru+2] [Compound 3 a]" assaymetric="Cellular accumulation" result="21±5 fg/cell"
compound="Cc1c([O-])c(=S)ccn1Cc1ccccc1.Cc1ccc(C(C)C)cc1.[Cl-].[Ru+2] [Compound 3 c]" assaymetric="Cellular accumulation" result="147±54 fg/cell"
compound="CC1=C2[O][Ir+]([Cl])[S]=C2C=CN1C.Cc1c(C)c(C)[c-](C)c1C [Compound 6 a]" assaymetric="Cellular accumulation" result="986±152 fg/cell"
compound="CC1=C2[O][Ir+]([Cl])[S]=C2C=CN1Cc1ccccc1.Cc1c(C)c(C)[c-](C)c1C [Compound 6 c]" assaymetric="Cellular accumulation" result="1680±333 fg/cell"
compound="CC1=C2[O][Rh+]([Cl])[S]=C2C=CN1C.Cc1c(C)c(C)[c-](C)c1C [Compound 5 a]" assaymetric="Cellular accumulation" result="118±35 fg/cell"
